Note to self: these compounds have pIC50 reported for UniProt P27815 in various publications.
Sequence (P27815 whole entry): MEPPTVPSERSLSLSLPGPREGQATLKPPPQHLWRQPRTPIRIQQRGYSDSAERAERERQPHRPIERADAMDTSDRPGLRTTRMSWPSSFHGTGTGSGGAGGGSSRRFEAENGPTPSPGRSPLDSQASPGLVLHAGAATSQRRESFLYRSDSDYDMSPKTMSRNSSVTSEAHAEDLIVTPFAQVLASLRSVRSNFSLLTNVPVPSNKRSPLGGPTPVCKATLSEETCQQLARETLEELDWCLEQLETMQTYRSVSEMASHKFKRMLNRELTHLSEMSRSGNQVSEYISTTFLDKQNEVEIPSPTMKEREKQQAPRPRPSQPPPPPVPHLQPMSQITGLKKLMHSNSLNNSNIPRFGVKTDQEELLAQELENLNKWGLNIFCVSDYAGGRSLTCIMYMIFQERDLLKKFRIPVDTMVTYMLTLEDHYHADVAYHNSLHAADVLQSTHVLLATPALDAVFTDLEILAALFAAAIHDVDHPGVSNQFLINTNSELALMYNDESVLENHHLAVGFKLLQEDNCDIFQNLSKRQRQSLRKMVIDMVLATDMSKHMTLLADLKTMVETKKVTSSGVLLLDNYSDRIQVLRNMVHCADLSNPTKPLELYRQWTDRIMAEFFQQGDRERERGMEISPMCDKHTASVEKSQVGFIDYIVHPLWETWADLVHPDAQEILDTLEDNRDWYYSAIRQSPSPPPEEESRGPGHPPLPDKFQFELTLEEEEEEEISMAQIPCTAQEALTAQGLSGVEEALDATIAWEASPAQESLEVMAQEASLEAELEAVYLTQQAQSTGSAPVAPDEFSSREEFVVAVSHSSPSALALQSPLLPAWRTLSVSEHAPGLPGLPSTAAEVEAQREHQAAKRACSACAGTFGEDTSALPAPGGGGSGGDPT
pIC50: −log10 of the molar value.
measured_quantity: pIC50

compound | pIC50
N#Cc1cccc(-c2nc(-c3ccc(C(=O)O)cc3)cc3cccnc23)c1 | 6.85
CCOC(=O)c1cc2c(=O)n3ccccc3nc2n(C2CCCCC2)/c1=N\C(C)=O | 6.95
CC(c1cccc(-c2cc(C(C)(C)S(C)(=O)=O)cc3cccnc23)c1)N(C(=O)c1ccc(C(C)(C)O)cc1)c1ccc(S(C)(=O)=O)cc1 (centres undefined) | 8.82
CC1(C)Cc2c(c(N3CCOCC3)nc3sc4c(NCc5ccncc5)ncnc4c23)CO1 | 7.01
CCOc1cccc(-c2cc(COc3ccc(CCC#N)cc3)cc3cccnc23)c1 | 6.78

a. CCN(C)c1nc2oc3c(NCCCN4CCCC4=O)ncnc3c2c2c1CCC(C)(C)C2
b. CC(C)NC(=O)/C(=C/c1cccc(-c2cc(C(C)C)cc3cccnc23)c1)c1ccc(S(C)(=O)=O)cc1
c. C[C@@H](Oc1ccc(CNC(=O)c2cccnc2Oc2ccc3c(c2)OCO3)c(F)c1)C(=O)O
Query: Please give the order of these compounds when sorted by pIC50, largest value leading. Respond with the label ranking, as requested.
Result: b, a, c
(b: 9.52, a: 7.21, c: 6.51)
